All figures here come from patent US20120121583A1.

# system-tested: T1, human Flag-tagged soluble TWEAK (amino acids 106-249) (human, UniProt O43508 106-249)
# T1 construct: N-terminal placement here is only an order of listing; not shown: Flag tag
# T1 sequence: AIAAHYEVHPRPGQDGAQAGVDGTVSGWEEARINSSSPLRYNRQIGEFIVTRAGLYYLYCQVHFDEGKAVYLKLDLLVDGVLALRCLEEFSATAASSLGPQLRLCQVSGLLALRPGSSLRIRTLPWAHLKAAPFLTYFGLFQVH
# protocol-notes: competition ELISA: antibody pre-incubated with human Flag-TWEAK 2.5 ng/ml, binding to coated human Fn14:Fc
measured-endpoint: IC50 (ng/mL)
Form entry: value (ng/mL) — number only.

Take a look at these entries with their results.
>>> reading("TW-304chi (antibody, human IgG1, kappa, V domains shown, also called chimeric antibody 304) VH: QSLEESGGDLVKPGASLTLTCKASGFSFSSTYYMCWVRQAPGKGLEWIGCIYVGSSGAPYYASWAKGRFTISKTSSTTVALQMTSLTPADTATYVCTRSVHFGDLWGPGTLVTVSS VL: DVVMTQTPSPVSAAVGGTVTIKCQASQSIGNDLSWYQQKPGQRPKLLIYSVSTLASGVPSRFKGSGSGTEYSLTISDVQCADAATYYCQCIDYGNNYVGNTFGGGTEVVVKR")
2.6
>>> reading("TW-304 (antibody, V domains shown, also called Antibody 304; rabbit antibody 304) VH: QSLEESGGDLVKPGASLTLTCKASGFSFSSTYYMCWVRQAPGKGLEWIGCIYVGSSGAPYYASWAKGRFTISKTSSTTVALQMTSLTPADTATYVCTRSVHFGDLWGPGTLVTVSS VL: DVVMTQTPSPVSAAVGGTVTIKCQASQSIGNDLSWYQQKPGQRPKLLIYSVSTLASGVPSRFKGSGSGTEYSLTISDVQCADAATYYCQCIDYGNNYVGNTFGGGTEVVVK")
2.8

// next entry
Look up IC50 of TW-301 (antibody, V domains shown, also called Antibody 301; rabbit antibody 301) VH: QSLEESGGGLVKPGASLTLTCTASGFTFNANYWICWVRQAPGKGLEWIACIYGGGNSGAYYASWATGRFTISRTSSTTVTLQMTSLTAADTATYFCARGPISRDLWGPGTLVTVSL VL: DVVMTQTPASVSEPVGGTVTIKCQASQSIYSSLAWYQQKPGQPPKLLIYDAFDLASGVSSRFTGSGSGTQFTLTISDLECADAATYYCQSTDYGNSWDGNPFGGGTEVVVT and report it.
3.4
